Where do these numbers come from? They come from patent US20220041647A1.

Assay: Metabolic stability assay, human hepatocyte incubations
Format: in vitro ADME
Conditions: compound 1 μM, human hepatocytes, 0-60 min at 37° C.; read-out: Human hepatocytes MetStab T½ min
Would you kindly list half-life at 1 μM for each of these molecules?
Give bare numbers, in h.

Worked examples follow.
CN(C)C(=O)c1ccc(NC(=O)CC[C@@H]2c3c[nH]nc3[C@@]3(C)CCC4c5ccc(Cl)cc5CCC4C23)nc1 (some centres unmarked) : 2.45
COc1ccnc(NC(=O)CC[C@@H]2c3c[nH]nc3[C@@]3(C)CCC4c5ccc(F)cc5CCC4C23)c1 (some centres unmarked) : 1.28
C[C@]12CCC3c4cccc(F)c4CCC3C1[C@H](CCC(=O)Nc1cc3c([nH]c1=O)CCCC3)c1c[nH]nc12 (some centres unmarked) : 1.95
CN(C)C(=O)c1ccc(NC(=O)CC[C@@H]2c3c[nH]nc3[C@@]3(C)CCC4c5cccc(F)c5CCC4C23)nc1 (some centres unmarked) : 1.78
C[C@]12CCC3c4ccc(F)cc4CCC3C1[C@H](CCC(=O)Nc1ccc(N3CCOCC3)cn1)c1c[nH]nc12 (some centres unmarked) : 1.25

Could you report half-life at 1 μM for every entry in the following list?
1. C[C@]12CCC3c4cccc(F)c4CCC3C1[C@H](CCC(=O)Nc1cc(F)ccn1)c1c[nH]nc12 (some centres unmarked)
2. CN1CCN(c2ccc(NC(=O)CC[C@@H]3c4c[nH]nc4[C@@]4(C)CCC5c6cccc(F)c6CCC5C34)nc2)CC1 (some centres unmarked)

0.717
0.783

I have 4 molecules here; please give me half-life at 1 μM for each one.
1. Cc1ccnc(NC(=O)CC[C@@H]2c3c[nH]nc3[C@@]3(C)CCC4c5ccccc5CCC4C23)c1 (some centres unmarked)
2. C[C@]12CCC3c4ccccc4CCC3C1[C@H](CCC(=O)Nc1cnccn1)c1c[nH]nc12 (some centres unmarked)
3. Cc1ccnc(NC(=O)CC[C@@H]2c3c[nH]nc3[C@@]3(C)CCC4c5ccc(F)cc5CCC4C23)c1 (some centres unmarked)
4. C[C@]12CCC3c4cccc(F)c4CCC3C1[C@H](CCC(=O)N1CCNC(=O)C1)c1c[nH]nc12 (some centres unmarked)

[1.13, 0.5, 1.1, 0.55]

====

Target: recombinant human 17β-HSD2 (Homo sapiens, UniProt P37059)
Construct: made in house; host or cells: Sd9 (Sf9) insect cells, baculovirus (Bac to Bac Expression System)
Sequence (P37059 whole entry): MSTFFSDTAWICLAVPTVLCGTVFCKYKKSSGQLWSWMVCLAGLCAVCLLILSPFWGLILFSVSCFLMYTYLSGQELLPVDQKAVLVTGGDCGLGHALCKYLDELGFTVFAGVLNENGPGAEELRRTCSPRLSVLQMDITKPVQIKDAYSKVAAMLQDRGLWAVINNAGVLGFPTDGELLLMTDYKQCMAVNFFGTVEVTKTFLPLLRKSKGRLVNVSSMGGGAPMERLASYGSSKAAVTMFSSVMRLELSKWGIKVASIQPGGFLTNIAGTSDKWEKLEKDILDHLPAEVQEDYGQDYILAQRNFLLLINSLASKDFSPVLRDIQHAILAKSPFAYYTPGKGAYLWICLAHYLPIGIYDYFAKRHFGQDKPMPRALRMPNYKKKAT
Test: Inhibition of recombinant human 17β-HSD2 (estradiol to estrone conversion, HPLC/radioactivity)
Assay type: biochemical
Settings: compound 1 μM; 50 nM estradiol, 1 mM NADH, 30 min RT
Description: 17β-HSD2 production and isolation: Similarly to 173-HSD1 the Recombinant baculovirus was generated by the “Bac to Bac Expression System” (Invitrogen). Recombinant bacmid was transfected to Sd9 insect cells using “Cellfectin Reagent” (Invitrogen). […] The amount of 173-HSD2 was analysed by immunoblotting and total protein concentration of each extract batch was determined. […] Percent inhibition was calculated followingly: % inhibition=100−% conversion.
ASSAY_METRIC: inhibition at 1 µM (%)
Numbers only, in %.

C[C@]12CCC3c4cccc(F)c4CCC3C1[C@H](CCC(=O)Nc1ccccn1)c1c[nH]nc12 (stereo partly shown) [Compound 18] : 1
C[C@]12CCC3c4ccccc4CCC3C1[C@H](CCC(=O)N1Cc3ccccc3C1)c1c[nH]nc12 (stereo partly shown) [Compound 180] : 12
COc1ccnc(NC(=O)CC[C@@H]2c3c[nH]nc3[C@@]3(C)CCC4c5cccc(F)c5CCC4C23)c1 (stereo partly shown) [Compound 48] : 5

Batch request: inhibition at 1 µM per item, same order as input.
1. CC(C)c1ccc(NC(=O)CC[C@@H]2c3c[nH]nc3[C@@]3(C)CCC4c5cccc(F)c5CCC4C23)nc1 (stereo partly shown) [Compound 36]
2. C[C@]12CCC3c4ccccc4CCC3C1[C@H](CCC(=O)Nc1ncc(F)cc1F)c1c[nH]nc12 (stereo partly shown) [Compound 261]
3. Cn1ccc(NC(=O)CC[C@@H]2c3c[nH]nc3[C@@]3(C)CCC4c5cccc(F)c5CCC4C23)n1 (stereo partly shown) [Compound 54]
4. COc1ccnc(NC(=O)CC[C@@H]2c3c[nH]nc3[C@@]3(C)CCC4c5ccc(F)cc5CCC4C23)c1 (stereo partly shown) [Compound 90]
5. Cn1cc(NC(=O)CC[C@@H]2c3c[nH]nc3[C@@]3(C)CCC4c5cccc(F)c5CCC4C23)cn1 (stereo partly shown) [Compound 63]
6. CN1CCN(c2ccc(NC(=O)CC[C@@H]3c4c[nH]nc4[C@@]4(C)CCC5c6ccccc6CCC5C34)nc2)CC1 (stereo partly shown) [Compound 198]
7. C[C@]12CCC3c4cccc(F)c4CCC3C1[C@H](CCC(=O)NC1CCOC1)c1c[nH]nc12 (stereo partly shown) [Compound 225]

1: 8; 2: 9; 3: 8; 4: 3; 5: 2; 6: 18; 7: -2

Go through the items and report each one's inhibition at 1 µM.
1. Cc1cc(NC(=O)CC[C@@H]2c3c[nH]nc3[C@@]3(C)CCC4c5ccccc5CCC4C23)no1 (stereo partly shown) [Compound 246]
2. CN(C)C(=O)CC[C@@H]1c2c[nH]nc2[C@@]2(C)CCC3c4cccc(F)c4CCC3C12 (stereo partly shown) [Compound 222]
3. C[C@]12CCC3c4ccccc4CCC3C1[C@H](CCC(=O)Nc1cccnn1)c1c[nH]nc12 (stereo partly shown) [Compound 255]
4. CN(C)C(=O)c1ccc(NC(=O)CC[C@@H]2c3c[nH]nc3[C@@]3(C)CCC4c5ccc(Cl)cc5CCC4C23)nc1 (stereo partly shown) [Compound 126]
5. C[C@]12CCC3c4cccc(F)c4CCC3C1[C@H](CCC(=O)N1CCCC1)c1c[nH]nc12 (stereo partly shown) [Compound 210]
6. C[C@]12CCC3c4cccc(F)c4CCC3C1[C@H](CCC(=O)Nc1ncccc1F)c1c[nH]nc12 (stereo partly shown) [Compound 231]

15
0
0
12
0
4

====

Molecular target: recombinant human 17β-HSD1 (Homo sapiens, UniProt P14061)
Construct: made in house; host or cells: Sd9 (Sf9) insect cells, baculovirus (Bac to Bac Expression System)
Sequence (P14061 whole entry): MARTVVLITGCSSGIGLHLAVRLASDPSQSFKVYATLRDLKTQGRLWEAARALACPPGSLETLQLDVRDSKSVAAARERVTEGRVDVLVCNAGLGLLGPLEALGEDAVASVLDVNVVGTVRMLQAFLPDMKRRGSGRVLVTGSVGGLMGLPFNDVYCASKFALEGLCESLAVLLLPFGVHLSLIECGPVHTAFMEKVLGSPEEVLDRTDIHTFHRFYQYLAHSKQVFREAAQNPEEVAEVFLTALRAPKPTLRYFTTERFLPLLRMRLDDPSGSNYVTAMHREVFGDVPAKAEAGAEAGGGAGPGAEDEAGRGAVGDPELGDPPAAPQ
Test: Inhibition of recombinant human 17β-HSD1 (estrone to estradiol conversion, HPLC/radioactivity)
Format: biochemical
Details: compound 100 nM; 30 nM estrone, 1 mM NADPH, 30 min RT
Short version: inhibition at 0.1 µM at least 90% is Met, less is Not met.

C[C@]12CCC3c4cccc(F)c4CCC3C1[C@H](CCC(=O)NN1CCCCC1)c1c[nH]nc12 (stereo partly drawn) [Compound 69] : Met
CC(C)(C)c1cc(NC(=O)CC[C@@H]2c3c[nH]nc3[C@@]3(C)CCC4c5ccc(F)cc5CCC4C23)no1 (stereo partly drawn) [Compound 102] : Not met
C[C@]12CCC3c4ccccc4CCC3C1[C@H](CCC(=O)N1CCCC1)c1c[nH]nc12 (stereo partly drawn) [Compound 147] : Not met
CC(C)c1ccc(NC(=O)CC[C@@H]2c3c[nH]nc3[C@@]3(C)CCC4c5ccc(F)cc5CCC4C23)nc1 (stereo partly drawn) [Compound 87] : Not met
COc1ccnc(NC(=O)CC[C@@H]2c3c[nH]nc3[C@@]3(C)CCC4c5ccc(F)cc5CCC4C23)c1 (stereo partly drawn) [Compound 90] : Not met
C[C@]12CCC3c4ccc(F)cc4CCC3C1[C@H](CCC(=O)Nc1ccc(N3CCOCC3)cn1)c1c[nH]nc12 (stereo partly drawn) [Compound 96] : Not met
C[C@]12CCC3c4ccccc4CCC3C1[C@H](CCC(=O)NC1CCOCC1)c1c[nH]nc12 (stereo partly drawn) [Compound 153] : Not met
C[C@]12CCC3c4ccc(F)cc4CCC3C1[C@H](CCC(=O)Nc1ccc(F)cn1)c1c[nH]nc12 (stereo partly drawn) [Compound 99] : Not met
CC(C)(C)NC(=O)CC[C@@H]1c2c[nH]nc2[C@@]2(C)CCC3c4cccc(F)c4CCC3C12 (stereo partly drawn) [Compound 72] : Met

Attention now shifts to the item below.
Reported inhibition at 0.1 µM reaches at least 90% for C[C@]12CCC3c4ccccc4CCC3C1[C@H](CCC(=O)NC1CCC1)c1c[nH]nc12 (stereo partly drawn) [Compound 192] ?
Not met

====

Target: recombinant human 17β-HSD2 (Homo sapiens, UniProt P37059)
Construct: made in house; host or cells: Sd9 (Sf9) insect cells, baculovirus (Bac to Bac Expression System)
Assay: Inhibition of recombinant human 17β-HSD2 (estradiol to estrone conversion, HPLC/radioactivity)
Format: biochemical
Details: compound 1 μM; 50 nM estradiol, 1 mM NADH, 30 min RT
Consider the following compounds; for each one, report its inhibition at 1 µM.
Numbers only, in %.

Worked examples follow.
Cc1cc(NC(=O)CC[C@@H]2c3c[nH]nc3[C@@]3(C)CCC4c5cccc(F)c5CCC4C23)no1 (stereo partly drawn) : 3
CC(C)(C)c1cc(NC(=O)CC[C@@H]2c3c[nH]nc3[C@@]3(C)CCC4c5cccc(F)c5CCC4C23)no1 (stereo partly drawn) : 10

From here, focus on the item given below.
Consider the compound shown here: CN1CCN(c2ccc(NC(=O)CC[C@@H]3c4c[nH]nc4[C@@]4(C)CCC5c6cccc(F)c6CCC5C34)nc2)CC1 (stereo partly drawn) What is its recorded inhibition at 1 µM?
34
